Here, each record is paired with measured composite z-score data.
test: small molecules captured by biotinylated probe aFSTL3 – biochemical, small-molecule microarray, fluorescence 635/667, stem cell growth factor project, primary screen (AID 1064); conditions: higher = more signal;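 note: measures binding of the biotinylated anti-FSTL3 antibody to printed compounds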
Respond with the number and no other words.

INSERT INTO results (compound, recorded_number) VALUES
  ('Cn1cccc1C(O)C1C=CC2C(=O)N(c3ccccc3)C(=O)C2N1Nc1ccccc1 (stereo unspecified)', -0.236),
  ('O=C(C1N=C(c2ccc(OCCCO)cc2)N(c2ccccc2)O1)N1CCCCC1 (stereo unspecified)', 0.819),
  ('[N-]=[N+]=Nc1ccccc1C[C@]1(C(=O)NCC(O)CO)COC(c2ccc(OCCCO)cc2)=N1 (stereo partly specified)', 0.502),
  ('[N-]=[N+]=Nc1ccccc1C[C@]1(C(=O)N2CCOCC2)COC(c2ccc(OCCCO)cc2)=N1', -0.0495),
  ('COCC(=C=CC[C@H](O)c1ccccc1OCCO)C[C@H](O)c1ccccn1', -0.109);

INPUT: Which composite z-score reading was recorded for the compound CC(C)[Si]1(C(C)C)OCc2cc(C3CC3)nc(-c3ccc(Oc4ccccc4)cc3)c21 ?
OUTPUT: -0.0872

INPUT: Which composite z-score reading was recorded for the compound CCCCCCCCCC(O)C1C=CC2C(=O)N(c3ccccc3)C(=O)C2N1Nc1cc(OC)c(OC)c(OC)c1 (stereo unspecified) ?
OUTPUT: -0.0386

INPUT: Which composite z-score reading was recorded for the compound CCCCC(CC)C(O)C1C=CC2C(=O)N(c3ccccc3)C(=O)C2N1Nc1ccccc1F (stereo unspecified) ?
OUTPUT: 0.0758

###

assay: probe aLefty1 binding on compound microarray – biochemical, small-molecule microarray, 635/667 nm fluorescence, primary screen (AID 1153); conditions: higher = more signal;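 note: score merges spot fluorescence with signal-to-noise ratio from the scanned slide images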
Here, each record is paired with measured composite z-score data.
Respond with the number and no other words.

INPUT: Which composite z-score reading was recorded for the compound COc1ccccc1CN1C(=O)c2ccccc2[C@](Cc2ccccc2I)(C(=O)O)[C@@H]1c1ccc(CO)cc1 ?
OUTPUT: 0.0366

INPUT: Which composite z-score reading was recorded for the compound CCOC(=O)C[C@H]1[C@H](OC(=O)c2cc3ccccc3oc2=O)[C@@H](NC(=O)c2ccc3ccccc3n2)c2cc(OCCCO)ccc2N1C(=O)Cc1ccc(OC)cc1 ?
OUTPUT: 0.0774

###

Here, each record is paired with measured composite z-score data.
assay: probe aDKK1 binding to arrayed compounds – biochemical, biotinylated probe, 635/667 nm fluorescence, primary screen (AID 1099); settings: small-molecule microarray, higher = more signal;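 note: score merges 667nm spot fluorescence with signal to noise across triplicate slides; reference of the scale not given here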
Respond with the number and no other words.

Examples with answers:
INSERT INTO assay_data (compound, recorded_number) VALUES
  ('CC[C@@H]1C=C(C(=O)O)[C@H](c2ccc(C#N)cc2)N1S(=O)(=O)c1ccc(C)cc1', 0.313),
  ('CCCCCCCCCCC(O)C1C=CC2C(=O)N(c3ccccc3)C(=O)C2N1Nc1ccc(C#N)cc1 (centres undefined)', 0.44),
  ('CC(C)[Si]1(C(C)C)OCc2cc(-c3ccc(-c4ccc(Cl)c(Cl)c4)o3)nc(-c3ccccc3)c21', -0.0755);

Then there is this compound:
INPUT: Which composite z-score reading was recorded for the compound CCCC[C@@H](O)C1=C(COC)C[C@H]2C(=O)N(Cc3ccccc3)C(=O)[C@H]2[C@H]1CO ?
OUTPUT: -0.449
